The measurements presented in this section are drawn from patent US10821110B2.

molecular target: human GPR40 (Homo sapiens); construct: host or cells: HEK-293; test: Activation of GPR40 protein: intracellular calcium change (Fluo-4, Flexstation 3) in transfected HEK-293 cells; assay type: cell-based; conditions: HEK-293 cells transfected with human GPR40; intracellular calcium; read-out: EC50
Sequence (O14842 whole entry): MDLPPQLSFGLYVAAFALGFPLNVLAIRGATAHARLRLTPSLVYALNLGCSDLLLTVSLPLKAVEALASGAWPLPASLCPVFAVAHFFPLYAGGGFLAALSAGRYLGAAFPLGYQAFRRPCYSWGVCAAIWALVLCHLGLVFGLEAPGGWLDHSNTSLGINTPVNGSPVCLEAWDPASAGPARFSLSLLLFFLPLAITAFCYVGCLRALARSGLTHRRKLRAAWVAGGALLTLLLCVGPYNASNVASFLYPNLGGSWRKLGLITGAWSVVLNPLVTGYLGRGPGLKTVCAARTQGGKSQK
measuredAttribute: EC50

The following molecules have reported results that may help.
1. CC#CC(CC(=O)O)c1ccc(OCc2ccc(CN3CCc4cc(OC)ccc4C3)cc2)cc1 (stereo not shown)    > 0.3 µM
2. CC#CC(CC(=O)O)c1ccc(OCc2ccc(CN3CCC(c4ccccc4)CC3)cc2)cc1 (stereo not shown)    > 0.3 µM
3. CC#C[C@@H](CC(=O)O)c1ccc(OCc2ccc(CN3CCCc4ccccc43)cc2)cc1    > 0.3 µM

EC50 for `CC#C[C@@H](CC(=O)O)c1ccc(OCc2ccc(CN3CC=C(c4ccccc4)CC3)cc2)cc1` is < 0.2 µM
